The values you see were collected from ChEMBL document CHEMBL1125413.

Target: Sodium-dependent dopamine transporter (Rattus norvegicus, UniProt P23977)
Sequence (P23977 whole entry): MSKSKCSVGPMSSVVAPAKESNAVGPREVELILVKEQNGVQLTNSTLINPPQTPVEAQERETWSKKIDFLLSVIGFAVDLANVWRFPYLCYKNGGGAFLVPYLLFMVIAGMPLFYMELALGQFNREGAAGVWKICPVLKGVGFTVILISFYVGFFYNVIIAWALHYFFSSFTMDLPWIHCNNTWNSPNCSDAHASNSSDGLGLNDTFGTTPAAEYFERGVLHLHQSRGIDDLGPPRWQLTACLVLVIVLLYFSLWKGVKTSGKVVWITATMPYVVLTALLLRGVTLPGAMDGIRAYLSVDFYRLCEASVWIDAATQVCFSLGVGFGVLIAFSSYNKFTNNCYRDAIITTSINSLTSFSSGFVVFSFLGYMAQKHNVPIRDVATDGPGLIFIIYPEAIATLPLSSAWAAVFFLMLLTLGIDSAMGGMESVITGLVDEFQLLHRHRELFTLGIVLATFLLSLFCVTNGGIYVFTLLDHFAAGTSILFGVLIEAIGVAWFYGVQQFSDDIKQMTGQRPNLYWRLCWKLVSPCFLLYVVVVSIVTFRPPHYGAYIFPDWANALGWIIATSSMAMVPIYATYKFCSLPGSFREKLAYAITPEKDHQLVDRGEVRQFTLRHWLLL
assay_metric: IC50 (nM)

>  <mol>
c1ccc2sc(C3(N4CCCCC4)CCCCC3)cc2c1

>  <u>
nM

>  <result>
2

$$$$

* * *

Molecular target: Sodium-dependent dopamine transporter (Rattus norvegicus)
Test: Inhibition of [3H]dopamine uptake at dopamine transporter.
assay_metric: IC50 (nM)

>  <compound>
COC(=O)C1C2CC[C@H](C[C@@H]1OC(=O)Nc1cccc([N+](=O)[O-])c1)N2C (some centres not stated)

>  <assay_metric>
IC50

>  <result>
178

$$$$
>  <compound>
COC(=O)[C@@H]1C2CC[C@H](C[C@@H]1c1ccccc1)N2C (stereo in doubt; 49)

>  <assay_metric>
IC50

>  <result>
1330

$$$$
>  <compound>
CC[C@H](C)[C@H](NC(=O)[C@@H](NC[C@H](CC(C)C)NC(=O)[C@H](Cc1c[nH]cn1)NC(=O)[C@H](Cc1ccccc1)NC(=O)[C@]1(C)CCCN1C(=O)OC(C)(C)C)C(C)C)C(=O)NCc1ccccn1

>  <assay_metric>
IC50

>  <result>
2480

$$$$
>  <compound>
COC(=O)C1C2CC[C@H](C[C@@H]1OC(=O)c1ccccc1)N2Cc1ccccc1 (some centres not stated)

>  <assay_metric>
IC50

>  <result>
77

$$$$
>  <compound>
C=CCN1C2CC[C@@H]1C[C@H](OC(=O)c1ccccc1)C2C(=O)OC (some centres not stated)

>  <assay_metric>
IC50

>  <result>
2500

$$$$
>  <compound>
CN1C2CC[C@@H]1C[C@H](c1ccc(Cl)cc1)C2C(=O)OCCc1ccc(N=[N+]=[N-])c(I)c1 (some centres not stated)

>  <assay_metric>
IC50

>  <result>
1400

$$$$
>  <compound>
COC(=O)C1C2CC[C@H](C[C@@H]1OC(=O)c1ccc(N=C=S)cc1)N2C (some centres not stated)

>  <assay_metric>
IC50

>  <result>
2780

$$$$
>  <compound>
COC(=O)C1C2CC[C@H](C[C@H]1c1ccc(C)cc1)N2C (some centres not stated)

>  <assay_metric>
IC50

>  <result>
110

$$$$
>  <compound>
COC(=O)C1C2CC[C@H](C[C@@H]1OC(=O)c1ccccc1)N2 (stereo in doubt; 23)

>  <assay_metric>
IC50

>  <result>
2500

$$$$
>  <compound>
COC(=O)[C@@H]1C2CC[C@H](C[C@@H]1c1ccccc1)N2C (stereo in doubt; 50)

>  <assay_metric>
IC50

>  <result>
200000

$$$$
>  <compound>
COC(=O)C1C2CC[C@H](C[C@@H]1OC(=O)c1ccc(N=[N+]=[N-])c(I)c1)N2C (some centres not stated)

>  <assay_metric>
IC50

>  <result>
800

$$$$
>  <compound>
COC(=O)[C@@H]1C2CC[C@H](C[C@@H]1c1ccccc1)N2C (stereo in doubt; 47)

>  <assay_metric>
IC50

>  <result>
960

$$$$
